Reference source for all entries: the supplement of paper PMC6897291

# System: U-2932
# MEASUREMENT PROTOCOL: growth inhibition by drug alone (1 - RLU/untreated control) (fraction); higher = stronger inhibition
# EXPERIMENTAL PARAMETERS: 1000 nM; time (day): 5; 177Lu-lilotomab satetraxetan 0 ug/ml
Counter-ions that a name gives are not always drawn.
Reported growth inhibition by drug alone values follow for various molecules
PROPERTY LABEL: growth inhibition by drug alone

MOLECULE	PROPERTY LABEL	VALUE OBSERVED
CCC(C)n1ncn(-c2ccc(N3CCN(c4ccc(OCC5COC(Cn6cncn6)(c6ccc(Cl)cc6Cl)O5)cc4)CC3)cc2)c1=O (stereo unspecified) [Itraconazole (Sporanox)]	growth inhibition by drug alone	0.0678
O=C(NCCCNc1nc(Nc2cccc(NC(=O)N3CCCC3)c2)ncc1I)c1cccs1	growth inhibition by drug alone	0.35
CC/C(=C(\c1ccccc1)c1ccc(OCCN(C)C)cc1)c1ccccc1 [Tamoxifen Citrate (Nolvadex)]	growth inhibition by drug alone	-0.0226
CO[C@@H](C(=O)N1Cc2[nH]nc(NC(=O)c3ccc(N4CCN(C)CC4)cc3)c2C1)c1ccccc1	growth inhibition by drug alone	0.259
CC[C@]1(O)C[C@@H]2CN(CCc3c([nH]c4ccccc34)[C@@](C(=O)OC)(c3cc4c(cc3OC)N(C)[C@H]3[C@@](O)(C(=O)OC)[C@H](OC(C)=O)[C@]5(CC)C=CCN6CC[C@]43[C@@H]65)C2)C1	growth inhibition by drug alone	0.971
O=C1c2c(O)ccc(O)c2C(=O)c2c(NCCNCCO)ccc(NCCNCCO)c21 [Mitoxantrone Hydrochloride]	growth inhibition by drug alone	0.981
Cc1ccc(NC(=O)c2ccc(CN3CC[C@H](N(C)C)C3)c(C(F)(F)F)c2)cc1Nc1nccc(-c2cncnc2)n1	growth inhibition by drug alone	-0.073
Nc1nc(N)c(N=O)c(OCC2CCCCC2)n1	growth inhibition by drug alone	-0.0902
N#CCNC(=O)c1ccc(-c2ccnc(Nc3ccc(N4CCOCC4)cc3)n2)cc1	growth inhibition by drug alone	-0.134
Oc1ccc(Nc2nc(-c3ccc(Cl)cc3)cs2)cc1	growth inhibition by drug alone	-0.00976
O=c1oc2c(O)c(O)cc3c(=O)oc4c(O)c(O)cc1c4c23	growth inhibition by drug alone	-0.0763
COc1ccc(S(=O)(=O)Nc2cccnc2Nc2ccc(O)cc2)cc1	growth inhibition by drug alone	0.932
O=C(O)c1ccc(-c2c[nH]c3ncc(-c4ccccc4)cc23)cc1C1CCCC1	growth inhibition by drug alone	-0.0534
CN(C)c1ccccc1CN1CCCN(Cc2ccccc2N(C)C)C1c1ccncc1	growth inhibition by drug alone	-0.0723
CC(=O)O[C@]1(C(C)=O)CC[C@H]2[C@@H]3C[C@H](C)C4=CC(=O)CC[C@]4(C)[C@H]3CC[C@@]21C [Medroxyprogesterone acetate]	growth inhibition by drug alone	0.15
COc1ccc2c(c1)CCC1C2CCC2(C)C(NCCCCCCN3C(=O)C=CC3=O)CCC12 (stereo unspecified)	growth inhibition by drug alone	-0.0312
